Tested on: MCF7 breast
Assay: NCI tumour cell line growth inhibition, 48 h
TGI values by entry

Previously resolved entries follow.
[
  {
    "molecule": "COc1ccc2c(c1)/C(=C/c1c(-c3ccc(C)cc3)nc3sc(C)cn13)C(=O)N2",
    "targetSystem": "MCF7 breast",
    "recordedValue": "> 100 µM"
  },
  {
    "molecule": "COc1cc(/C=C2\\C[C@H]3[C@@H]4CC=C5C[C@@H](OC(C)=O)CC[C@]5(C)[C@H]4CC[C@]3(C)[C@H]2OC(C)=O)ccc1OCCCn1ccnc1",
    "targetSystem": "MCF7 breast",
    "recordedValue": "20.9 µM"
  },
  {
    "molecule": "Clc1cccc(Cl)c1C1SCc2nc3cc4ccccc4cc3n21 (configuration not stated)",
    "targetSystem": "MCF7 breast",
    "recordedValue": "> 100 µM"
  },
  {
    "molecule": "CC1=C(C(=O)OC23CC4CC(CC(C4)C2)C3)C(c2ccccc2OC(F)F)C(C(=O)OC23CC4CC(CC(C4)C2)C3)=C(C)N1 (configuration not stated)",
    "targetSystem": "MCF7 breast",
    "recordedValue": "> 100 µM"
  }
]

[Q] Item `CCn1cc(C(=O)O)c(=O)c2cc(F)c(N3CCN(Cn4c(O)c(N=NC(=O)c5ccncc5)c5cc(Cl)ccc54)CC3)cc21` with MCF7 breast - TGI?
[A] > 100 µM

[Q] Now try `NC(=O)CC1(O)C=CC(=O)C=C1` .
[A] > 100 µM

[Q] Next: `COc1ccc2c(c1)C(=O)c1c-2c(N2CCN(C(=O)CN(C)C)CC2)nc2ccccc12`
[A] 27.6 µM

[Q] Moving on to the next molecule: O=C(O)C(Cc1ccccc1)N1C(=O)c2ccccc2C1=O (configuration not stated)
[A] > 100 µM

[Q] Same for `CCCN(CCC)C(=S)N/N=C/c1cccc(C)n1`
[A] 0.67 µM

[Q] Would you kindly repeat that for CC/C(=C/OC)P1(=O)OC(C)(C)CN1C(C)(C)C (configuration not stated) ?
[A] > 100 µM

[Q] Queued: `COc1ccccc1NC(=S)Nc1cccc(C)n1`
[A] > 100 µM

[Q] Okay, and CC1N(O)C(c2ccccc2)C(c2ccccc2)=[N+]1[O-] (configuration not stated) ?
[A] > 100 µM

[Q] Same question for `COc1cc2c(cc1OCCCCCN1CCN(c3cc(=O)oc4c(C)c(OC)ccc34)CC1)N=C[C@@H]1CCCN1C2=O` please.
[A] 3.43 µM

[Q] Then COC(=O)C(Cc1ccccc1)C(=O)NC(CNC(=O)OCc1ccccc1)C(=O)OCc1ccccc1 (configuration not stated) ?
[A] > 100 µM

[Q] Can you handle `N#Cc1c(N)nc(N2CCOCC2)c(C#N)c1-c1cccc(O)c1` next?
[A] > 100 µM

[Q] And the next one, O=C(/C=C/C12c3ccccc3C(c3ccccc31)C1C(=O)NC(=O)C12)c1ccco1 (configuration not stated) ?
[A] 12.6 µM

[Q] Now give it for CC(C)CC(NC(=O)OCc1ccccc1)C(=O)NCCCCC(N)C(=O)NC(CCCCNC(=O)C(CC(C)C)NC(=O)OCc1ccccc1)C(=O)NC(CCCCNC(=O)C(CC(C)C)NC(=O)OCc1ccccc1)C(=O)NC(CCCCNC(=O)C(CC(C)C)NC(=O)OCc1ccccc1)C(=O)NC(CCCCNC(=O)C(CC(C)C)NC(=O)OCc1ccccc1)C(=O)NC(CCCCNC(=O)C(CC(C)C)NC(=O)OCc1ccccc1)C(=O)O (configuration not stated) too.
[A] > 100 µM
